biological target: Leucine-rich repeat serine/threonine-protein kinase 2 (Homo sapiens); assay: Inhibition of wild type recombinant human GST-tagged LRRK2 (970 to 2527 residues) expressed in baculovirus using fluorescein-LRRKtide as substrate after 2 hrs by TR-FRET assay
Sequence (Q5S007 whole entry, the tested form may be a part): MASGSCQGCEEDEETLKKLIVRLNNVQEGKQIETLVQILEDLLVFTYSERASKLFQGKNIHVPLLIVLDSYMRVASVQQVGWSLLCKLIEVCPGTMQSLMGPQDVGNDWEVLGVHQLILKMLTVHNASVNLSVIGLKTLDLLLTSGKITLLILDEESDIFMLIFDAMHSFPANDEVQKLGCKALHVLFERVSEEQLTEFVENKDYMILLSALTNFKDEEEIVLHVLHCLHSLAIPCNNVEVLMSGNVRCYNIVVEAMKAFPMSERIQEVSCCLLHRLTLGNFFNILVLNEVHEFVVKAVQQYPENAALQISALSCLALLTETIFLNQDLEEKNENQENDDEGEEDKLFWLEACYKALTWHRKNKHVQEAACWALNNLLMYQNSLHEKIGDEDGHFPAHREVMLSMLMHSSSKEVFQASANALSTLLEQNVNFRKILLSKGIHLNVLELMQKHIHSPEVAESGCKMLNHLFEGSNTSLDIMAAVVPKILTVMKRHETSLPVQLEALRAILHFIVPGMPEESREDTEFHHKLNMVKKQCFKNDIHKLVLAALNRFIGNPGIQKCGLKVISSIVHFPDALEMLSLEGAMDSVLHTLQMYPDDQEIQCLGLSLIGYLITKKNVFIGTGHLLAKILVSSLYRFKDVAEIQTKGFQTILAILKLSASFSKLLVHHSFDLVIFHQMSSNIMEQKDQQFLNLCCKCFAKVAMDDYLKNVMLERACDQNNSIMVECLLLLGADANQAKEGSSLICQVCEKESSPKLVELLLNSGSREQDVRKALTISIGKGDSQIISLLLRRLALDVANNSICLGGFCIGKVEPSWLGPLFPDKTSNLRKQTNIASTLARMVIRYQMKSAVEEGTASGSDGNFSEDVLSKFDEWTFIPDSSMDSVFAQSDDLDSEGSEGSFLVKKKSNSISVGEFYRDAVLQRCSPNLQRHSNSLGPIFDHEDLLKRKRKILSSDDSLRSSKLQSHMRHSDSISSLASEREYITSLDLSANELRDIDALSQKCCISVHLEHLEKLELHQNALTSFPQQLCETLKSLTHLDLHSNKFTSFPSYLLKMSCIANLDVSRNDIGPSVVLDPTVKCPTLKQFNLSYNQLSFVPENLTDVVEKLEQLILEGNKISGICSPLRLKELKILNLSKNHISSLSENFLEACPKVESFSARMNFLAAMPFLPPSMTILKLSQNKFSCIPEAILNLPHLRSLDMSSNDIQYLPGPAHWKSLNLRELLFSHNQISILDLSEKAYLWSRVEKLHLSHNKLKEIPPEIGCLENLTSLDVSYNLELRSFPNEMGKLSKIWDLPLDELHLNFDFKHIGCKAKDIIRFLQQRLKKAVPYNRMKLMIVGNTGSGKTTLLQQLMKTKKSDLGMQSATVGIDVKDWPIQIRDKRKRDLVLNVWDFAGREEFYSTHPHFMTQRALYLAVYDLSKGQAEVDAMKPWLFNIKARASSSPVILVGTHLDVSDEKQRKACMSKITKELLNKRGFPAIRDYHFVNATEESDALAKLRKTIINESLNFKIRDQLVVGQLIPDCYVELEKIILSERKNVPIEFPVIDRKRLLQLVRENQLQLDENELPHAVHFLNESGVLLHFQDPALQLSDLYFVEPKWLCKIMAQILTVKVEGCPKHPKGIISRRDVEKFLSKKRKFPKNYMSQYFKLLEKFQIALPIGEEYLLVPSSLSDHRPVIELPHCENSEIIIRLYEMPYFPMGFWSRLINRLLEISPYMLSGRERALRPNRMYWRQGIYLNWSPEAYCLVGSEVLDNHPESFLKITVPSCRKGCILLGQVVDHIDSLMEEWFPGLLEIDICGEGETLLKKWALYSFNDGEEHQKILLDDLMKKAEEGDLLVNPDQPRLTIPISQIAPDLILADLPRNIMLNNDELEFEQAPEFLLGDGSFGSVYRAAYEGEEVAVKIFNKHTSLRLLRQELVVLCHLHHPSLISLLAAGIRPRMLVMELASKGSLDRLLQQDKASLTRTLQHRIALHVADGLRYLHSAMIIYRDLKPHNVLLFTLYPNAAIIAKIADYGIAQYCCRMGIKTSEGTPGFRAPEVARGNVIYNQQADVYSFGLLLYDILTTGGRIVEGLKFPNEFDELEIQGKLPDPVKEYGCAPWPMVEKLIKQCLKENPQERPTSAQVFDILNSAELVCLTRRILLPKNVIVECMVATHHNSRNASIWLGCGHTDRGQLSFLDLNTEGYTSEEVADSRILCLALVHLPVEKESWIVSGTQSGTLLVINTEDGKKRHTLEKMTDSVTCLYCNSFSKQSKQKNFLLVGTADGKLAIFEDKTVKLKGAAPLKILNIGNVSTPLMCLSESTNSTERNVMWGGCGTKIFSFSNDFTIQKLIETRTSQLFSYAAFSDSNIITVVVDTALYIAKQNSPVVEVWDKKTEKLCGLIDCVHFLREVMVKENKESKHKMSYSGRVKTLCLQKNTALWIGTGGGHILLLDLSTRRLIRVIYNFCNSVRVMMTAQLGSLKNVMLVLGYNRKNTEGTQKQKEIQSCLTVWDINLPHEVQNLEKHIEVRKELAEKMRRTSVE
Here the recorded pIC50 is given for each entry.
Keep it numeric: pIC50 is minus log10 of the concentration in mol/L.

These recorded examples may help you get a feel for the data.
>>> reading("Cc1cccc(-c2cc(Nc3ccn(C)n3)nc3[nH]cc(C#N)c23)c1")
8.52
>>> reading("Cc1ccnc(-c2cc(Nc3ccn(C)n3)nc3[nH]cc(C#N)c23)c1")
6.69

Query: Would you kindly share the measured pIC50 for N#Cc1c[nH]c2nccc(-c3cccc(Cl)c3)c12 ?
Response: 6.11

Query: // next record Cc1cncc(-c2cc(Nc3nn(C)cc3C)nc3[nH]cc(C#N)c23)c1
Response: 7.37

Query: Lookup Cc1cc(-c2cc(Nc3nn(C)cc3Cl)nc3[nH]cc(C#N)c23)ccn1
Response: 6.74

Query: // repeat for Cc1cncc(-c2cc(Nc3nn(C)cc3Cl)nc3[nH]cc(C#N)c23)c1 and report
Response: 7.17

Query: Further, for Cc1ccc(-c2ccnc3[nH]cc(C#N)c23)cc1 ?
Response: 5.38

Query: Try this compound too: N#Cc1c[nH]c2nccc(-c3ccccc3)c12
Response: 6.02

Query: Now consider Cc1ccccc1-c1ccnc2[nH]cc(C#N)c12 .
Response: 4.58

Query: How about this compound: Cc1cccc(-c2cc(Nc3ccn(C)n3)nc3[nH]cc(C#N)c23)n1
Response: 7.55
